Data origin, for the record: patent US8946216B2

target_under_test: unphosphorylated Mouse ERK2 protein (inactive ERK2) (Mus musculus)
Sequence (P63085 whole entry): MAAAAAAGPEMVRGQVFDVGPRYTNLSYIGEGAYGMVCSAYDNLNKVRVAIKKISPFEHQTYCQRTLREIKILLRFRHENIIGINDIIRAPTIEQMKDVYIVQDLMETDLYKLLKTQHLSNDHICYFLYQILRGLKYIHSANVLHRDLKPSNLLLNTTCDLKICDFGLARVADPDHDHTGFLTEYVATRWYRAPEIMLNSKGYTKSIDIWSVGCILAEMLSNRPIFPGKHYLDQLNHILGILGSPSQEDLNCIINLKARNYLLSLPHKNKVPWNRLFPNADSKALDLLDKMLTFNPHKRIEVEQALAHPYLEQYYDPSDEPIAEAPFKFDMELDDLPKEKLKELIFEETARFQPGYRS
protocol_details: Coupled ERK2 (cERK) assay, coupled MEK1/ERK2 IMAP
condition_summary: 30 min preincubation with inactive ERK2, then activation by human MEK1; 30 μM ATP; fluorescence polarization; read-out: cERK2 IC50
Text: • 1. M. W. Pantoliana, E. C. Petrella, J. D. Kwasnoski, V. S. Lobanov, J. Myslik, E. Graf, T. Carver, E. Asel, B. A. Springer, P. Lane, F. R. Salemme, High-density miniaturized thermal shift assays as a general strategy for drug discovery, J. Biomol. Screen 6 (2001) 429-440 • 2. […] Mayhood, T. W., Windsor, W. T., Ligand binding affinity determined by temperature-dependent circular dichroism: Cyclin-dependent kinase 2 inhibitors, Analytical Biochemistry 345 (2005) 187-197 Coupled ERK2 (cERK) Assay: […]
Hi! Could you tag entries with IC50 below 0.5 µM as Yes, and those at or above as No? Much appreciated.

# compound, target_under_test, category
measured = [
    ("CC(C)Oc1ccc(-c2n[nH]c3ccc(NC(=O)C4CN(Cc5ccccc5)CCO4)cc23)cn1 (stereo not drawn) [Compound 1]", "unphosphorylated Mouse ERK2 protein (inactive ERK2) (Mus musculus)", "No"),
    ("O=C(Nc1ccc2[nH]nc(-c3ccncc3)c2c1)C1CN(Cc2ccccc2F)CC[S+]1[O-] (stereo not drawn) [Compound 69]", "unphosphorylated Mouse ERK2 protein (inactive ERK2) (Mus musculus)", "Yes"),
    ("O=C(Nc1ccc2[nH]nc(-c3ccncc3)c2c1)C1CCCN(C(=O)c2ccccc2)C1 (stereo not drawn) [Compound 56]", "unphosphorylated Mouse ERK2 protein (inactive ERK2) (Mus musculus)", "Yes"),
    ("O=C(Nc1ccc2[nH]nc(-c3ccncc3)c2c1)C1CN(Cc2c(F)ccc(Cl)c2F)CCO1 (stereo not drawn) [Compound 47]", "unphosphorylated Mouse ERK2 protein (inactive ERK2) (Mus musculus)", "Yes"),
    ("O=C(Nc1ccc2[nH]nc(-c3ccncc3)c2c1)C1CN(Cc2ccccn2)CCO1 (stereo not drawn) [Compound 5]", "unphosphorylated Mouse ERK2 protein (inactive ERK2) (Mus musculus)", "No"),
    ("O=C(Nc1ccc2[nH]nc(-c3ccncc3)c2c1)C1CN(Cc2ccsc2)CCO1 (stereo not drawn) [Compound 3]", "unphosphorylated Mouse ERK2 protein (inactive ERK2) (Mus musculus)", "Yes"),
]
